Molecular target: HLA-A*02:01 (Homo sapiens, UniProt P04439, D140Y/D185E/D98H/E176V/E277Q/G131W/G231S/I119V/I121R/I166T/I218V/L300P/L318F/N151K/N90K/P208A/P217A/Q86G/Q94H/R138H/R169H/T345S)
Experiment: MHC binding assay: UV-ligand exchange with β2m ELISA
Conditions: peptide exchange yield, binding to HLA-A*02:01

substance: 17 (MISRTPEV; listed as Homo sapiens) [compound 17]
Peptide exchange: ++ (≥20% = ++)
//
substance: 45 (MLTELEKAL; listed as Homo sapiens) [compound 45]
Peptide exchange: ++ (≥20% = ++)
//
substance: 74 (ILASLATSV; listed as Homo sapiens) [compound 74]
Peptide exchange: +++ (≥50 = +++)
//
substance: 16 (VLAEGGEGV; listed as Homo sapiens) [compound 16]
Peptide exchange: +++ (≥50 = +++)

* * *

Target: HLA-A*02:01 (Homo sapiens, UniProt P04439, D140Y/D185E/D98H/E176V/E277Q/G131W/G231S/I119V/I121R/I166T/I218V/L300P/L318F/N151K/N90K/P208A/P217A/Q86G/Q94H/R138H/R169H/T345S)
Test: MHC binding assay: UV-ligand exchange with β2m ELISA
Conditions: peptide exchange yield, binding to HLA-A*02:01
readoutLabel: Peptide exchange

These recorded examples may help you get a feel for the data.
substance: 61 (TQTTHELTI; listed as Homo sapiens) [compound 61]
recordedValue: +++ (≥50 = +++)
//
substance: 59 (SLLDTLREV; listed as Homo sapiens) [compound 59]
recordedValue: +++ (≥50 = +++)
//
substance: 3 (TASAITPSV; listed as Homo sapiens) [compound 3]
recordedValue: +++ (≥50 = +++)
//
substance: 71 (ASDPILYRPVAV; listed as Homo sapiens) [compound 71]
recordedValue: +++ (≥50 = +++)
//
substance: 68 (PAVLQSSGLYSL; listed as Homo sapiens) [compound 68]
recordedValue: ++ (≥20% = ++)

Next, consider the following substance.
33 (GLDVTSLRPFDL; listed as Homo sapiens) [compound 33] yielded Peptide exchange of +++ (≥50 = +++)

* * *

Tested on: CD8+ T cells
Test: In vitro T-cell priming assay with aAPCs loaded with peptide/MHC and anti-CD28, pMHC multimer readout
Assay type: cell-based, human
Settings: Table 10B
readoutLabel: Wells positive [%]

substance: 77 (VLVPYEPPQV; listed as Homo sapiens) [compound 77]
testSystem: CD8+ T cells
Wells positive [%]: + (<20% = +)
//
substance: 1 (STYGGGLSV; listed as Homo sapiens) [compound 1]
testSystem: CD8+ T cells
Wells positive [%]: + (<20% = +)
//
substance: 12 (GLASRILDA; listed as Homo sapiens) [compound 12]
testSystem: CD8+ T cells
Wells positive [%]: + (<20% = +)
//
substance: 69 (GLLVGSEKVTM; listed as Homo sapiens) [compound 69]
testSystem: CD8+ T cells
Wells positive [%]: + (<20% = +)
//
substance: 2 (SLYNLGGSKRISI; listed as Homo sapiens) [compound 2]
testSystem: CD8+ T cells
Wells positive [%]: + (<20% = +)
//
substance: 5 (NLMASQPQL; listed as Homo sapiens) [compound 5]
testSystem: CD8+ T cells
Wells positive [%]: +++ (50%-69% = +++)

substance 29 (SLDGTELQL; listed as Homo sapiens) [compound 29] , Wells positive [%] observed: + (<20% = +)

Looking up 47 (VLASGFLTV; listed as Homo sapiens) [compound 47] , I found its Wells positive [%] recorded as +++ (50%-69% = +++)

Given item 19 (GLAPFLLNAV; listed as Homo sapiens) [compound 19] , the value recorded as its Wells positive [%] is + (<20% = +)

* * *

Molecular target: HLA-A*02:01 (Homo sapiens, UniProt P04439, D140Y/D185E/D98H/E176V/E277Q/G131W/G231S/I119V/I121R/I166T/I218V/L300P/L318F/N151K/N90K/P208A/P217A/Q86G/Q94H/R138H/R169H/T345S)
Test: MHC binding assay: UV-ligand exchange with β2m ELISA
Details: peptide exchange yield, binding to HLA-A*02:01
readoutLabel: Peptide exchange

Some solved cases for reference:
substance: 73 (KITEAIQYV; listed as Homo sapiens) [compound 73]
Peptide exchange: +++ (≥50 = +++)
//
substance: 80 (ALQEALENA; listed as Homo sapiens) [compound 80]
Peptide exchange: ++ (≥20% = ++)
//
substance: 52 (VAIGGVDGNVRL; listed as Homo sapiens) [compound 52]
Peptide exchange: ++ (≥20% = ++)
//
substance: 27 (NLREGDQLL; listed as Homo sapiens) [compound 27]
Peptide exchange: +++ (≥50 = +++)
//
substance: 36 (FLLRFSQDNA; listed as Homo sapiens) [compound 36]
Peptide exchange: ++ (≥20% = ++)
//
substance: 32 (YMLDIFHEV; listed as Homo sapiens) [compound 32]
Peptide exchange: ++ (≥20% = ++)

Recorded result, 83 (ALADGVVSQA; listed as Homo sapiens) [compound 83] , Peptide exchange: +++ (≥50 = +++)

Record 89 (SLADSLYNL; listed as Homo sapiens) [compound 89] , field Peptide exchange: ++ (≥20% = ++)

* * *

Molecular target: HLA-A*02:01 (Homo sapiens, UniProt P04439, D140Y/D185E/D98H/E176V/E277Q/G131W/G231S/I119V/I121R/I166T/I218V/L300P/L318F/N151K/N90K/P208A/P217A/Q86G/Q94H/R138H/R169H/T345S)
Assay: MHC binding assay: UV-ligand exchange with β2m ELISA
Conditions: peptide exchange yield, binding to HLA-A*02:01
Excerpt: Candidate peptides for T cell based therapies according to the present invention were further tested for their MHC binding capacity (affinity). The individual peptide-MHC complexes were produced by UV-ligand exchange, where a UV-sensitive peptide is cleaved upon UV-irradiation, and exchanged with the peptide of interest as analyzed. Only peptide candidates that can effectively bind and stabilize the peptide-receptive MHC molecules prevent dissociation of the MHC complexes. […]
readoutLabel: Peptide exchange

substance: 39 (LVRDTQSGSL; listed as Homo sapiens) [compound 39]
Peptide exchange: ++ (≥20% = ++)
//
substance: 81 (AVLPHVDQV; listed as Homo sapiens) [compound 81]
Peptide exchange: +++ (≥50 = +++)
//
substance: 65 (YVVGGFLYQRL; listed as Homo sapiens) [compound 65]
Peptide exchange: +++ (≥50 = +++)
//
substance: 66 (LLDEKVQSV; listed as Homo sapiens) [compound 66]
Peptide exchange: +++ (≥50 = +++)

Lab note: 7 (SIFEGLLSGV; listed as Homo sapiens) [compound 7] gave Peptide exchange of ++ (≥20% = ++)
